molecular target: recombinant human JNK (JNK1, JNK2); test: JNK inhibitory activity, enzyme assay (phosphorylation of biotinylated ATF2, Alpha Screen detection); conditions: JNK isoform not stated
For each of the molecules below, state its pIC50.
In textbook form, pIC50 equals minus log to base ten of the concentration in mol/L.

Prompt line: Any idea what pIC50 came out for Clc1cc(NCc2ccc3c(c2)OCO3)n2nccc2n1 on recombinant human JNK (JNK1, JNK2)?
Response line: 6.48

Prompt line: COc1cc(CNc2cc(-c3ccsc3)nc3ccnn23)cc(OC)c1OC ?
Response line: 6.13
